The measured values listed here are drawn from patent US9957247B2.

Here the recorded IC50 is given for each entry.
- ASSAYED_SYSTEM: BsSecA (Bacillus subtilis, UniProt P28366)
- Sequence (P28366 whole entry): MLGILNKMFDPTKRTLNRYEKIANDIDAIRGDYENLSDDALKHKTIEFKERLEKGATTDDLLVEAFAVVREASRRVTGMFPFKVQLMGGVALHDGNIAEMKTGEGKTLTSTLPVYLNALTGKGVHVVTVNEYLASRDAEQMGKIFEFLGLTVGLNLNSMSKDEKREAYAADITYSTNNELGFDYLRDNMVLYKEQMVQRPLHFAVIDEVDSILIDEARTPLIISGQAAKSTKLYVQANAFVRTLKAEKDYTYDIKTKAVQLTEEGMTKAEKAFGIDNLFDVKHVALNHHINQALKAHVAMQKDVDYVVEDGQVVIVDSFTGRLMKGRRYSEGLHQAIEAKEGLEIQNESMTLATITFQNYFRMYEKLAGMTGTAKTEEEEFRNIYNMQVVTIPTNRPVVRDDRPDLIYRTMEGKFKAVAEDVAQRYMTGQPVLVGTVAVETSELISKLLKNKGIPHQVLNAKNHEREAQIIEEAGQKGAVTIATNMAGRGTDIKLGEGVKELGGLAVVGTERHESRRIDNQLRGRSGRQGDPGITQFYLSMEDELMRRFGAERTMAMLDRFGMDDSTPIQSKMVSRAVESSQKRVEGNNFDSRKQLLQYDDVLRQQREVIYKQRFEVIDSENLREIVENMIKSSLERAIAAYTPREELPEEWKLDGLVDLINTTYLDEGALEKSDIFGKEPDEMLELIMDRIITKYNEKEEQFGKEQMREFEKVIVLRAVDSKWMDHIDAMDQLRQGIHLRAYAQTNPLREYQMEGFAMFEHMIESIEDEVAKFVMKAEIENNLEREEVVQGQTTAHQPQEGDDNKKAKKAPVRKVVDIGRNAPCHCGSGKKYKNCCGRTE
- TEST_DESCRIPTION: cell-based
- Set-up: species or system B. subtilis
- STUDY_CONDITIONS: IC50, Ion Channel activity, BsSecA, Table 1
Lab note: write values as number then unit, every time.

INSERT INTO results (smiles_structure, observed_result) VALUES
  ('Oc1ccc2c(c1)Oc1cc(O)ccc1C2C1CCCC1', '3000 nM'),
  ('CCCCCCC1c2ccc(O)cc2Oc2cc(O)ccc21', '2500 nM');

Query compound follows.
Task item: Identify the reported IC50 for the following entry. CSc1nc(Sc2nnc(-c3cc(C(F)(F)F)cc(C(F)(F)F)c3)[nH]2)cc(Sc2nnc(-c3cc(C(F)(F)F)cc(C(F)(F)F)c3)[nH]2)n1
Reply: 2600 nM

* * *

- ASSAYED_SYSTEM: BsSecA (Bacillus subtilis)
- TEST_DESCRIPTION: biochemical
- Type: biochemical, B. subtilis
MEASUREMENT_NAME: pIC50
Hey, just a heads up that pIC50 is the negative log base 10 of the concentration in molar.

INSERT INTO results (smiles_structure, observed_result) VALUES
  ('Oc1ccc2c(c1)Oc1cc(O)ccc1C2C1CCCC1', 4.52);

Now for another entry.
Task item: # return pIC50 for CCCCCCC1c2ccc(O)cc2Oc2cc(O)ccc21 , test system: BsSecA (Bacillus subtilis)
Reply: 4.48

* * *

Listed next: entries and their corresponding pIC50.
- ASSAYED_SYSTEM: EcSecA N68 (Escherichia coli)
- Sequence (P10408 1-610): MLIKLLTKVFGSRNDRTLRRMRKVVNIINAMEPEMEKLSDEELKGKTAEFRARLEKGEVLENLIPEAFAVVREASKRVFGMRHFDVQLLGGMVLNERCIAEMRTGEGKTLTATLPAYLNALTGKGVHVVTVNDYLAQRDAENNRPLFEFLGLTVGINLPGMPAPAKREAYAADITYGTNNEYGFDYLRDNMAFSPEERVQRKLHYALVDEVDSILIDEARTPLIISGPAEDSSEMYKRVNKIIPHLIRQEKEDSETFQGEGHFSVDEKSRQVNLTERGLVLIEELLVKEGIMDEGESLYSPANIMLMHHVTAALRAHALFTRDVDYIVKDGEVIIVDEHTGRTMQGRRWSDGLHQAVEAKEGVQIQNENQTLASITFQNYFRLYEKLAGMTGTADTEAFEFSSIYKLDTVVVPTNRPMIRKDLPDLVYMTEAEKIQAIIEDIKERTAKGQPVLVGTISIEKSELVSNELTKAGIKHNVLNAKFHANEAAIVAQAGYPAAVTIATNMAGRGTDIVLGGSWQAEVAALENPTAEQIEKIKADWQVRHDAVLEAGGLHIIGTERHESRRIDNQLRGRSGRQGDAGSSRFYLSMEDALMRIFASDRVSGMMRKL
- TEST_DESCRIPTION: biochemical
- Format: biochemical, E. coli
Note on units: pIC50 is unitless, being -log10 of a concentration expressed in mol/L.

In the examples that follow, each entry is paired with its recorded pIC50.
INSERT INTO measurements (smiles_structure, assayed_system, observed_result) VALUES
  ('Oc1ccc2c(c1)Oc1cc(O)ccc1C2C1CCCC1', 'EcSecA N68 (Escherichia coli)', 5.10),
  ('CSc1nc(Sc2nnc(-c3cc(C(F)(F)F)cc(C(F)(F)F)c3)[nH]2)cc(Sc2nnc(-c3cc(C(F)(F)F)cc(C(F)(F)F)c3)[nH]2)n1', 'EcSecA N68 (Escherichia coli)', 4.74);

Now let's try a different one.
Task item: Determine from records and report pIC50 for CCCCCCC1c2ccc(O)cc2Oc2cc(O)ccc21
Reply: 5.40

* * *

- ASSAYED_SYSTEM: SaSecA1 (Staphylococcus aureus)
- STUDY_CONDITIONS: read-out: IC50, Ion Channel activity, SaSecA1; Table 1
MEASUREMENT_NAME: IC50 (nM)
Answer in nM, number only, no unit symbol.

Task item: Entry CSc1nc(Cl)cc(Sc2nnc(-c3cc(C(F)(F)F)cc(C(F)(F)F)c3)[nH]2)n1 needs its IC50 filled in; supply it.
Reply: 600

* * *

- ASSAYED_SYSTEM: EcSecA N68 (Escherichia coli)
- TEST_DESCRIPTION: biochemical
- Type: biochemical, E. coli
- STUDY_CONDITIONS: Table 1; read-out: IC50, Intrinsic ATPase, EcSecA N68
MEASUREMENT_NAME: IC50
Kindly format the answer as number then unit.

Task item: Dear colleague, please send me the reported IC50 for CSc1nc(Cl)cc(Sc2nnc(-c3cc(C(F)(F)F)cc(C(F)(F)F)c3)[nH]2)n1 when you can.
Reply: 30 µM

* * *

- ASSAYED_SYSTEM: EcSecA (Escherichia coli)
- Sequence (P0AG99 whole entry): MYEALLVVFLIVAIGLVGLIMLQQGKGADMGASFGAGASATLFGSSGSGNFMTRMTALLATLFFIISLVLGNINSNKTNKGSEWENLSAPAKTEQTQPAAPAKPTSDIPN
- Sequence (P10408 whole entry): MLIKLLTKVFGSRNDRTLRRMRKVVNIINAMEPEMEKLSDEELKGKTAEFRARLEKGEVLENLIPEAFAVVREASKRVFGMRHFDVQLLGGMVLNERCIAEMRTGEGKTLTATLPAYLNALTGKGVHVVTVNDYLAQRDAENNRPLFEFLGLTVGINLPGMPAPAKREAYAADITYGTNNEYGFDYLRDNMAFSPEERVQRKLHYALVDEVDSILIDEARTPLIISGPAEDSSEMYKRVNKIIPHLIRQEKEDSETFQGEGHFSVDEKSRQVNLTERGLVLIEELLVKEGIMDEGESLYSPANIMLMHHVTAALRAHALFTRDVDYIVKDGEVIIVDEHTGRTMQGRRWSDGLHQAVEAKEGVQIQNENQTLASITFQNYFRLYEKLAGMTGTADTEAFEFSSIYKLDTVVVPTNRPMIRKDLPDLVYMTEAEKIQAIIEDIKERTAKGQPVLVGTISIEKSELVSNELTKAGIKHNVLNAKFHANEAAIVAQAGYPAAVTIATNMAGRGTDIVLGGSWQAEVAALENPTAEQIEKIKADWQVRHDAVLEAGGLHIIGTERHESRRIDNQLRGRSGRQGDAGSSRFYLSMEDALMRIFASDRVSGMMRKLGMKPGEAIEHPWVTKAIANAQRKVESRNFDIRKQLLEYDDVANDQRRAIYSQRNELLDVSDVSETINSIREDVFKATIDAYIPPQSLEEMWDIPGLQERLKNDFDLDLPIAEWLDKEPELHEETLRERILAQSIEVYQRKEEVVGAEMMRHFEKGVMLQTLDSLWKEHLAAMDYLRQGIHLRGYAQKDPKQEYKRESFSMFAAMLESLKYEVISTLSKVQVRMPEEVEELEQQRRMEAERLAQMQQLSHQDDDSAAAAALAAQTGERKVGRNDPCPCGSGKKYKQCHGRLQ
- Sequence (P0AGA2 whole entry, further chain): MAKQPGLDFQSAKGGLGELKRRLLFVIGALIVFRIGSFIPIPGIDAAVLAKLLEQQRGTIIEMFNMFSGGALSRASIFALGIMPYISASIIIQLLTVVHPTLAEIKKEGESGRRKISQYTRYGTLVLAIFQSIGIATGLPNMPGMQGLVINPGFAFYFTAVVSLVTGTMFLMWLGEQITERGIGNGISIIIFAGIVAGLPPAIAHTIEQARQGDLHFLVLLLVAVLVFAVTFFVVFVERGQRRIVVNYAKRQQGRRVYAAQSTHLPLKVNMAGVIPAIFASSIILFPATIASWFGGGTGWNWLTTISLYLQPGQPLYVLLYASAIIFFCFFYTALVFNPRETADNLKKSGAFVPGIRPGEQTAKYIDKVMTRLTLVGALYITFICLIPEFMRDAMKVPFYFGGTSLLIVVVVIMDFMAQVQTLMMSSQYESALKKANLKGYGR
- Sequence (P0AG96 whole entry, further chain): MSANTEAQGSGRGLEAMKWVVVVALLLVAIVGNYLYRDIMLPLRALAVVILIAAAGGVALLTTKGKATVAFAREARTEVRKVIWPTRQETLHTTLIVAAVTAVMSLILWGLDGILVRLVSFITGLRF
- TEST_DESCRIPTION: biochemical
- STUDY_CONDITIONS: IC50, Protein Translocation, Table 1
MEASUREMENT_NAME: pIC50
Reminder that pIC50 is minus the log10 of a molar concentration.

Example compounds with recorded pIC50:
INSERT INTO measurements (smiles_structure, observed_result) VALUES
  ('CSc1nc(Sc2nnc(-c3cc(C(F)(F)F)cc(C(F)(F)F)c3)[nH]2)cc(Sc2nnc(-c3cc(C(F)(F)F)cc(C(F)(F)F)c3)[nH]2)n1', 4.68),
  ('CSc1nc(Cl)cc(Sc2nnc(-c3cc(C(F)(F)F)cc(C(F)(F)F)c3)[nH]2)n1', 4.60),
  ('Oc1ccc2c(c1)Oc1cc(O)ccc1C2C1CCCC1', 4.26);

# next compound below
Task item: Give pIC50 for CCCCCCC1c2ccc(O)cc2Oc2cc(O)ccc21 tested on EcSecA (Escherichia coli).
Reply: 4.42

* * *

Hi! I'm sharing some IC50 results obtained with MtbSecA (Mycobacterium tuberculosis, UniProt P9WGP5).
Sequence (P9WGP5 whole entry): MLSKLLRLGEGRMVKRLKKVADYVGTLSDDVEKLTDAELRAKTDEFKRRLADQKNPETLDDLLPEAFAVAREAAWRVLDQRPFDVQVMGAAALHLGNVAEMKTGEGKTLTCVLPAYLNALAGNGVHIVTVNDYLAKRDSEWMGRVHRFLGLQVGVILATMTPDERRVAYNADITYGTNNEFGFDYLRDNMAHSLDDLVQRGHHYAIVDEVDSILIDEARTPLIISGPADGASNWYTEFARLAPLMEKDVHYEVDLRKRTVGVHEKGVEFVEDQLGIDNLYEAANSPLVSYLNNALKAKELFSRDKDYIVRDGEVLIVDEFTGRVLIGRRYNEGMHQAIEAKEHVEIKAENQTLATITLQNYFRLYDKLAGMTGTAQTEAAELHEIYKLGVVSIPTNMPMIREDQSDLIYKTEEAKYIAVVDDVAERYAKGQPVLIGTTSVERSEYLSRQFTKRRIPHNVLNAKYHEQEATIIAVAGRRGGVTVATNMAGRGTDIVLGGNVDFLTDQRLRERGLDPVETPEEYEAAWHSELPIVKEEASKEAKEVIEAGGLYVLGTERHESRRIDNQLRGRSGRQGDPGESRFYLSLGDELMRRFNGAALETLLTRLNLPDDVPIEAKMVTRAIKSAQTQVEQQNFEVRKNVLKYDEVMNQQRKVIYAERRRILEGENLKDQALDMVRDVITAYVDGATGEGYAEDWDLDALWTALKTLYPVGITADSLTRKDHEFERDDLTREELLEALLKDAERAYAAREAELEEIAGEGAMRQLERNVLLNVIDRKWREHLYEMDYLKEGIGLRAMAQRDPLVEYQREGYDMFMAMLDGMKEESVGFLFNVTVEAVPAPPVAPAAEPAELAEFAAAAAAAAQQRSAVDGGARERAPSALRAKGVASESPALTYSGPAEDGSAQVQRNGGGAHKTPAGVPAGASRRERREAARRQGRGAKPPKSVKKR
Return type: number; implicit unit nM.

INSERT INTO measurements (molecule, assayed_system, endpoint_unit, observed_result) VALUES
  ('CSc1nc(Cl)cc(Sc2nnc(-c3cc(C(F)(F)F)cc(C(F)(F)F)c3)[nH]2)n1 [SCA-107]', 'MtbSecA (Mycobacterium tuberculosis, UniProt P9WGP5)', 'nM', 2000);

Task item: # lookup: MtbSecA (Mycobacterium tuberculosis, UniProt P9WGP5) IC50, key = CSc1nc(Sc2nnc(-c3cc(C(F)(F)F)cc(C(F)(F)F)c3)[nH]2)cc(Sc2nnc(-c3cc(C(F)(F)F)cc(C(F)(F)F)c3)[nH]2)n1 [SCA-21]
Reply: 2000

Task item: Answer with IC50 of Oc1ccc2c(c1)Oc1cc(O)ccc1C2C1CCCC1 [SCA-41] measured for MtbSecA (Mycobacterium tuberculosis, UniProt P9WGP5).
Reply: 3200

Task item: Report its IC50 with MtbSecA (Mycobacterium tuberculosis, UniProt P9WGP5) as the test system: CCCCCCC1c2ccc(O)cc2Oc2cc(O)ccc21 [SCA-50]
Reply: 3000

* * *

- ASSAYED_SYSTEM: BsSecA2
- STUDY_CONDITIONS: read-out: IC50, Intrinsic ATPase, BsSecA2; Table 1
Listed below: pIC50 values for each entry.
Please note pIC50 is a logarithmic value: minus log10 of concentration in mol/L. Answer with that number alone.

INSERT INTO results (smiles_structure, assayed_system, observed_result) VALUES
  ('O=C(O)c1c(Cl)c(Cl)c(Cl)c(Cl)c1-c1c2cc(I)c(=O)c(I)c-2oc2c(I)c(O)c(I)cc12', 'BsSecA2', 4.82),
  ('CSc1nc(Sc2nnc(-c3cc(C(F)(F)F)cc(C(F)(F)F)c3)[nH]2)cc(Sc2nnc(-c3cc(C(F)(F)F)cc(C(F)(F)F)c3)[nH]2)n1', 'BsSecA2', 4.35),
  ('CSc1nc(Cl)cc(Sc2nnc(-c3cc(C(F)(F)F)cc(C(F)(F)F)c3)[nH]2)n1', 'BsSecA2', 4.19);

Task item: // Input: CCCCCCC1c2ccc(O)cc2Oc2cc(O)ccc21 . Output its pIC50 only.
Reply: 4.70

Task item: Identify the reported pIC50 for the following entry. Oc1ccc2c(c1)Oc1cc(O)ccc1C2C1CCCC1
Reply: 4.52

* * *

- ASSAYED_SYSTEM: PaSecA (Pseudomonas aeruginosa, UniProt Q9LCT3)
- TEST_DESCRIPTION: cell-based
- Type: cell-based
- STUDY_CONDITIONS: Rose Bengal IC50, channel activity, PaSecA, Re-13, Re-13 (second value of BA13/Re-13)
MEASUREMENT_NAME: IC50 (nM)
Form entry: value (nM) — number only.

Task item: Supply recorded IC50 for O=C(O)c1c(Cl)c(Cl)c(Cl)c(Cl)c1-c1c2cc(I)c(=O)c(I)c-2oc2c(I)c(O)c(I)cc12 [RB, Rose Bengal] here.
Reply: 300

* * *

- ASSAYED_SYSTEM: UniProt:O06446
- TEST_DESCRIPTION: cell-based
Listing of recorded IC50 by entry.

Task item: Give IC50 for CCCCCCC1c2ccc(O)cc2Oc2cc(O)ccc21 tested on UniProt:O06446.
Reply: 1100 nM

Task item: For UniProt:O06446, give IC50 of the listed molecule: CSc1nc(Sc2nnc(-c3cc(C(F)(F)F)cc(C(F)(F)F)c3)[nH]2)cc(Sc2nnc(-c3cc(C(F)(F)F)cc(C(F)(F)F)c3)[nH]2)n1
Reply: 1600 nM

* * *

- ASSAYED_SYSTEM: MsSecA (Mycolicibacterium smegmatis, UniProt P71533)
- Sequence (P71533 whole entry): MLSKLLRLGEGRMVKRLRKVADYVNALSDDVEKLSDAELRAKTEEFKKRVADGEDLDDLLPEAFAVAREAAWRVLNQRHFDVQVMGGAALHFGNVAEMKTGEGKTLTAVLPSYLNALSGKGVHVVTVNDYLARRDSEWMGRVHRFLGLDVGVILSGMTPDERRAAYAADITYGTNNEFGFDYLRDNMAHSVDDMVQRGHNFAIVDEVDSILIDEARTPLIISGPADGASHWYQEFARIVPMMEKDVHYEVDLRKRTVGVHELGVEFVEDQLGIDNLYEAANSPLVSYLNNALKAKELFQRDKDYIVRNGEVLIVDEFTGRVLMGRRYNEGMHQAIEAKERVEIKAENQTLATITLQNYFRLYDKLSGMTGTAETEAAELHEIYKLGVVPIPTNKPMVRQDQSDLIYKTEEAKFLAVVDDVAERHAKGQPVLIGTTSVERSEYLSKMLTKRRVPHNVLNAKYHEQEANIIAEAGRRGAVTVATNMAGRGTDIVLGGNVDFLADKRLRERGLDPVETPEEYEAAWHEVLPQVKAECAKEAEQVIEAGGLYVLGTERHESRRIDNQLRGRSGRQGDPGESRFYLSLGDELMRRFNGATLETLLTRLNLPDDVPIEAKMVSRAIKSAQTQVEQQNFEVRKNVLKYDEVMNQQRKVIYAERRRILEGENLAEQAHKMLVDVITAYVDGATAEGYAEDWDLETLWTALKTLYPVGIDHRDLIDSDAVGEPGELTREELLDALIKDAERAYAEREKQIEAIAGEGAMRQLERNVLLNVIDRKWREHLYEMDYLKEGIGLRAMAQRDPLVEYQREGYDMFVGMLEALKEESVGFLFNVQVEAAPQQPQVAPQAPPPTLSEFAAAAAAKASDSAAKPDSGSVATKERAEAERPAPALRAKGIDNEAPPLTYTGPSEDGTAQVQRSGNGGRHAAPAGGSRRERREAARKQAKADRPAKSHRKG
- TEST_DESCRIPTION: SecA-liposomes ion-channel activity in oocytes, MsSecA
- STUDY_CONDITIONS: Table 1
Each entry below carries its recorded pIC50.
The read-out pIC50 is expressed as -log10 of concentration in moles per litre.

INSERT INTO results (molecule, assayed_system, measurement_name, observed_result) VALUES
  ('CSc1nc(Sc2nnc(-c3cc(C(F)(F)F)cc(C(F)(F)F)c3)[nH]2)cc(Sc2nnc(-c3cc(C(F)(F)F)cc(C(F)(F)F)c3)[nH]2)n1 [SCA-21]', 'MsSecA (Mycolicibacterium smegmatis, UniProt P71533)', 'pIC50', 5.70),
  ('CCCCCCC1c2ccc(O)cc2Oc2cc(O)ccc21 [SCA-50]', 'MsSecA (Mycolicibacterium smegmatis, UniProt P71533)', 'pIC50', 5.60),
  ('Oc1ccc2c(c1)Oc1cc(O)ccc1C2C1CCCC1 [SCA-41]', 'MsSecA (Mycolicibacterium smegmatis, UniProt P71533)', 'pIC50', 5.46);

API: the following record is the query input.
Task item: Indicate its recorded pIC50; the molecule in question is CSc1nc(Cl)cc(Sc2nnc(-c3cc(C(F)(F)F)cc(C(F)(F)F)c3)[nH]2)n1 [SCA-107]
Reply: 5.60
